# systemTested: CepR (Burkholderia multivorans, UniProt Q93PF7)
# Sequence (Q93PF7 1-239): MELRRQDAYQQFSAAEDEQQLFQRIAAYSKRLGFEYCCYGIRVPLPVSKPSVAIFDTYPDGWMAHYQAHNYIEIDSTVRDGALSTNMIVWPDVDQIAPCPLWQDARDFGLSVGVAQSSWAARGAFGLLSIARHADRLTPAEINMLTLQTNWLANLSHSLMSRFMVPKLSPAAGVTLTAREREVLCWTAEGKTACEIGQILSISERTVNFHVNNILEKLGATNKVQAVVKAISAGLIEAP
# experimentalDetails: CepR antagonism in B. multivorans cepI::lacZ reporter (Bm-reporter), competition against C8-AHL
# Assay type: cell-based
# experimentalParameters: Bm-reporter; against 5 nM C8-AHL; read-out: IC50
assayMetric: IC50 (µM)
All answers are understood in µM, so give the number only.

The recorded IC50 for O=C(N[C@H]1CCOC1=O)C1CCCC1 [Compound S4] is 3.7

// sample CCCC(=O)N[C@H]1CCOC1=O [Compound C4-AHL, butanoyl L-homoserine lactone, reference compound] , its IC50 was 0.25

// IC50 value for O=C(Cc1cccc(Br)c1)N[C@H]1CCOC1=O [Compound C8] : 2.6

Short answer for CCCC(=O)CC(=O)N[C@H]1CCOC1=O [3’O-C6-AHL, reference compound] : IC50 was 0.8

Record O=C(Cc1cccc([N+](=O)[O-])c1)NC1CCOC1=O (stereo not shown) [Compound C14] , field IC50: 0.62

Recorded result, O=C(Cc1ccc([N+](=O)[O-])cc1)N[C@H]1CCOC1=O [Compound C13] , IC50: 3.6

Please examine the following record next.
Reported IC50 of CSc1cccc(CC(=O)NC2CCOC2=O)c1 (stereo not shown) [Compound E7] : 4
